Where do these numbers come from? They come from PubChem BioAssay (NCI).

system: CAKI-1 renal; assay: NCI tumour cell line growth inhibition, 48 h
experimental_readout: TGI

Q: Entry `Fc1cc(-c2ncc(Cl)cc2Cl)c2cccccc1-2` needs its TGI filled in; supply it.
Ans: > 100 µM

Q: Entry `Cc1cccc2c1NC(=O)[C@@]21[C@H](C(=O)c2ccccc2)[C@]2(C(=O)Nc3ccccc32)[C@H]2CCCN21` needs its TGI filled in; supply it.
Ans: > 100 µM

Q: Entry CC1(C)CCC2(C(=O)O)CC[C@]3(C)C(=CCC4C5(C)CC[C@H](OC6OC(C(=O)O)C(O)C(OC7OC(CO)C(O)C(O)C7O)C6OC6OC(CO)C(O)C(O)C6O)C(C)(C)C5CCC43C)C2C1 (stereo not given in full) needs its TGI filled in; supply it.
Ans: > 100 µM

Q: Entry CC(C)(C)OC(=O)NC(Cc1ccc(OCc2ccccc2)cn1)C(=O)N1CCSCC1 (stereo not given) needs its TGI filled in; supply it.
Ans: > 100 µM

Q: Entry `C/C(=N\NS(=O)(=O)c1ccc(C)cc1)c1c(O)cc(C)oc1=O` needs its TGI filled in; supply it.
Ans: > 100 µM

Q: Entry `c1ccc(/N=C2\c3ccccc3CN2c2ccccn2)nc1` needs its TGI filled in; supply it.
Ans: > 100 µM

Q: Entry O=C(OCC1CCCN2CCCCC12)c1ccncc1 (stereo not given) needs its TGI filled in; supply it.
Ans: > 100 µM

Q: Entry `O[C@H]1[C@H](O)[C@H](O)CN2CCC[C@@H](O)[C@H]12` needs its TGI filled in; supply it.
Ans: > 100 µM

Q: Entry `CCn1c(-c2ccc(C)cc2)cs/c1=N\C(P(=O)(O)O)P(=O)(O)O` needs its TGI filled in; supply it.
Ans: > 100 µM

Q: Entry `NNC(=O)CCC(=O)Nc1ccc(Cl)cc1Cl` needs its TGI filled in; supply it.
Ans: > 100 µM
